pKi: −log10 of the molar value.
Recorded pKi values (rat mGluR5 receptors (Rattus norvegicus)) are given below.

// known answers, use as guide
                            compound_string  measured
0  Cc1ccc2ncc(S(=O)(=O)c3cccc(F)c3)c(N3CCOCC3)c2c1    < 6.30
1  COc1ccc2ncc(S(=O)(=O)c3ccc(F)cc3)c(N3CCC(C)CC3)c2c1    < 6.30
2  CC1CCN(c2c(S(=O)(=O)c3cccc(F)c3)cnc3cc(Cl)ccc23)CC1    > 6.70

Noted pKi for COc1ccc2ncc(S(=O)(=O)c3ccc(OC)c(Cl)c3)c(N3CCC(C)CC3)c2c1 , tested on rat mGluR5 receptors (Rattus norvegicus): < 6.30

Noted pKi for COc1ccc(S(=O)(=O)c2cnc3ccc(F)cc3c2N2CCC(C)CC2)cc1OC , tested on rat mGluR5 receptors (Rattus norvegicus): 6.30 to 6.70

Noted pKi for Cc1ccc2ncc(S(=O)(=O)c3cc(F)cc(F)c3)c(N3CCC(C)CC3)c2c1 , tested on rat mGluR5 receptors (Rattus norvegicus): 6.30 to 6.70

Noted pKi for Cc1ccc(S(=O)(=O)c2cnc3ccccc3c2N2CCC(C)CC2)cc1 , tested on rat mGluR5 receptors (Rattus norvegicus): > 6.70

Noted pKi for CCc1ccc2ncc(S(=O)(=O)c3ccccc3)c(N3CCN(Cc4ccccc4)CC3)c2c1 , tested on rat mGluR5 receptors (Rattus norvegicus): < 6.30

Noted pKi for O=S(=O)(c1ccc(Cl)cc1)c1cnc2cc(F)ccc2c1N1CCOCC1 , tested on rat mGluR5 receptors (Rattus norvegicus): < 6.30

Noted pKi for Cc1ccc2ncc(S(=O)(=O)c3ccc(Cl)cc3)c(N3CCCCC3)c2c1 , tested on rat mGluR5 receptors (Rattus norvegicus): < 6.30
